A collection of variants and their measured self-cleavage
B1: LINE1-mini (parent)
chain: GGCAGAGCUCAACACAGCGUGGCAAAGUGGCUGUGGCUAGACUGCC

Variants of: B1
assay.method.text: self-cleavage, relative activity (ratio to wild type); higher = more cleavage; in vitro, sequencing; the parent is a self-cleaving ribozyme
assay.endpoint: self-cleavage

- A6G C46G: 0.08
- G7C C42A: 0.08
- C13A A14G: 0.08
